Reference source for all entries: ChEMBL document CHEMBL1152973

What log10(IC50) was measured for each of the following?
# methodNotes: Displacement of [3H]ethynylpropylbicycloorthobenzoate from GABAA receptor from rat cortical membrane by scintillation counting in presence of 1 uM GABA
Recorded IC50 (log10, µM)

>>> print(df.to_string())
                                   compound  recordedmeasurement
0  CC(=O)[C@H]1CC[C@H]2[C@@H]3CC[C@H]4C[C@H](O)CC[C@]4(C)[C@H]3C(=O)C[C@]12C                -0.05
1  COC(=O)c1cncn1[C@H](C)c1ccc(I)cc1 [IODOMETOMIDATE I-123, R-]                 1.57
2  CC(=O)[C@H]1CC[C@H]2[C@@H]3CC[C@H]4C[C@H](O)CC[C@]4(C)[C@H]3CC[C@]12C                -0.85

Count: 3. Required value per item: log10(IC50).
1. COC(=O)c1cncn1[C@H](C)c1ccc(C)cc1
2. COC(=O)c1cncn1Cc1ccccc1
3. COC(=O)c1cncn1[C@H](C)c1ccccc1

1. 1.19
2. 2.20
3. 0.95

###

# methodNotes: Displacement of [3H]ethynylpropylbicycloorthobenzoate from GABA receptor from rat cortical membrane by scintillation counting in absence of GABA
What IC50 was measured for each of the following?

Solved cases (3 shown):
>>> df
                                   molecule  recordedmeasurement
0         COC(=O)c1cncn1[C@H](C)c1cccc(I)c1             > 300 µM
1  CCOC(=O)c1cncn1[C@H](C)c1ccccc1 [ETOMIDATE]                38 µM
2          COC(=O)c1cncn1[C@@H]1CCc2ccccc21             > 300 µM

Kindly give each listed record's IC50.
1. COC(=O)c1cncn1[C@H](C)c1ccc(Br)cc1
2. COC(=O)c1cncn1[C@H](C)c1ccc(CO)cc1
3. CC(=O)c1cncn1[C@H](C)c1ccccc1
4. C[C@H](c1ccccc1)n1cncc1C(=O)OCCF
5. COC(=O)c1cncn1[C@H](C)c1ccc(I)cc1 [IODOMETOMIDATE I-123, R-]

["109 µM", "> 300 µM", "> 300 µM", "80 µM", "> 300 µM"]

###

# methodNotes: Displacement of [3H]ethynylpropylbicycloorthobenzoate from GABAA receptor from rat cortical membrane by scintillation counting in presence of 1 uM GABA
pIC50: −log10 of the molar value.
Rule: t for pIC50 not less than 4, f for anything less.

Assess whether reported pIC50 for "COC(=O)c1cncn1[C@H](C)c1cccc(I)c1" sits at 4 or higher.
t

Reported pIC50 at or above 4? "COC(=O)c1cncn1[C@H](C)c1ccc(Br)cc1"
t

State whether the measured pIC50 reaches 4, counting equality as reaching it, for "COC(=O)c1cncn1[C@H](C)c1ccc(CO)cc1"
f

###

# Organism: Rattus norvegicus
# methodNotes: Ratio of IC50 for rat cortical membrane GABA receptor in absence of GABA to IC50 for rat cortical membrane GABA receptor in presence of GABA
recordedMetric: Ratio IC50
Numbers only.

Record excerpt, results attached:
In [3]: df
Out[3]:
                                   molecule  recordedmetric  recordedmeasurement
0        COC(=O)c1cncn1[C@H](C)c1ccc(Br)cc1      Ratio IC50                 15.6
1          CCCOC(=O)c1cncn1[C@H](C)c1ccccc1      Ratio IC50                 14.1
2            COC(=O)c1cncn1[C@H](C)c1ccccc1      Ratio IC50                 19.6
3  CC(=O)[C@H]1CC[C@H]2[C@@H]3CC[C@H]4C[C@H](O)CC[C@]4(C)[C@H]3C(=O)C[C@]12C      Ratio IC50                  102
4        CC(C)OC(=O)c1cncn1[C@H](C)c1ccccc1      Ratio IC50                 14.6
5  CCOC(=O)c1cncn1[C@H](C)c1ccccc1 [ETOMIDATE]      Ratio IC50                 19.3
6  CC(=O)[C@H]1CC[C@H]2[C@@H]3CC[C@H]4C[C@H](O)CC[C@]4(C)[C@H]3CC[C@]12C      Ratio IC50                   50
7           CC[C@H](c1ccccc1)n1cncc1C(=O)OC      Ratio IC50                 15.8

Would you kindly look at the next entry?
# input molecule: "C[C@H](c1ccccc1)n1cncc1C(=O)OCCF" ; wanted: its Ratio IC50
16.6
